- Experimental target: VEB-1 (Escherichia coli, UniProt Q7BVU7)
Assay readout: IC50 (nM)
// note: answer is a bare numeric in nM

q: Record lookup: for VEB-1 (Escherichia coli, UniProt Q7BVU7), what IC50 belongs to NC(=O)[C@@H]1CC[C@@H]2CN1C(=O)N2OS(=O)(=O)O ?
a: 0.1
